Value source: patent US6593342B1

For each entry below, report its average number of clones of clonogenic cells, percentage relative to control value.
- System: MXT
- PROTOCOL NOTES: Clonogenic test (soft agar colony growth), MXT
- Assay type: cell-based, mouse
- CONDITION PARAMETERS: 10^−9 M, 21 days, control = 100%, mean ± SEM
Answer with a number only, understood to be in %.

Looking for the measured average number of clones of clonogenic cells, percentage relative to control of "CCN(CC)C(=O)Cn1c(=O)c(-c2ccc(OC)cc2)cc2c(OC)cc(OC)cc21" , can you help?
102.4

# input molecule: "COc1ccc(-c2cc3c(OC)cc(OC)cc3n(CCN(C)C)c2=O)cc1" ; wanted: its average number of clones of clonogenic cells, percentage relative to control
95.3

State the recorded average number of clones of clonogenic cells, percentage relative to control for this entry: "COc1ccc(-c2cc3c(OC)cc(OC)cc3n(CCc3nnn[nH]3)c2=O)cc1"
104.5

Tell me the measured average number of clones of clonogenic cells, percentage relative to control of "COc1ccc(-c2cc3c(OC)cc(OC)cc3[nH]c2=O)cc1" , please.
95.2

Query: average number of clones of clonogenic cells, percentage relative to control; subject: "COc1ccc(-c2cc3c(OC)cc(OC)cc3n(CCC#N)c2=O)cc1"
98.4

// lookup average number of clones of clonogenic cells, percentage relative to control for "CCN(CC)C(=O)CCn1c(=O)c(-c2ccc(OC)cc2)cc2c(OC)cc(OC)cc21"
91.4

----------
I'd appreciate it if you could supply viability at 10 µM values for the items below.
- Test system: U-87MG
- PROTOCOL NOTES: MTT test, U-87MG
- Format: cell-based
- CONDITION PARAMETERS: Homo sapiens, 10^−5 M, 72 hours, control = 100%, mean ± SEM, read-out: average optical density (MTT), percentage relative to control
Field: numeric (%). Do not append units.

// lookup viability at 10 µM for "CCN(CC)C(=O)Cn1c(=O)c(-c2ccc(OC)cc2)cc2c(OC)cc(OC)cc21"
87.6

Fill in the blank: the reported viability at 10 µM of "COc1ccc(-c2cc3c(OC)cc(OC)cc3[nH]c2=O)cc1" is ____.
92.1

Item under review: "COc1ccc(-c2cc3c(OC)cc(OC)cc3n(CCc3nnn[nH]3)c2=O)cc1" . Reported viability at 10 µM?
84.7

Value lookup for viability at 10 µM; key = "COc1ccc(-c2cc3c(OC)cc(OC)cc3n(CC(=O)O)c2=O)cc1"
91

Could you tell me which viability at 10 µM is on file for "COC(=O)CCn1c(=O)c(-c2ccc(OC)cc2)cc2c(OC)cc(OC)cc21" ?
78.1

Look up viability at 10 µM for this compound: "COc1ccc(-c2cc3c(OC)cc(OC)cc3n(CCN(C)C)c2=O)cc1"
74.3

Which viability at 10 µM reading was recorded for the compound "COc1ccc(-c2cc3c(OC)cc(OC)cc3n(CCCN(C)C)c2=O)cc1" ?
105

GET /values?readout=viability at 10 µM&item= "COc1ccc(-c2cc3c(OC)ccc(OC)c3nc2O)cc1"
82.3

Field request: viability at 10 µM | item: "COc1ccc(-c2cc3c(OC)cc(OC)cc3n(C)/c2=N\Nc2ccccn2)cc1"
64.4

Which viability at 10 µM value is on record for "COc1ccc(-c2cc3c(OC)cc(OC)cc3n(CC#N)c2=O)cc1" ?
72.5

# viability at 10 µM lookup, item "CCOC(=O)Cn1c(=O)c(-c2ccc(OC)cc2)cc2c(OC)cc(OC)cc21"
74.5

Given the entry "COc1cc(OC)c2cc(-c3ccccc3)c(O)nc2c1" , report its measured viability at 10 µM.
86.6

Can you share its viability at 10 µM? I mean this compound: "Cn1c(=O)c(-c2ccc(O)cc2)cc2c(O)cc(O)cc21"
96.5

Consider the compound shown here: "COc1cc(OC)c2cc(-c3ccc(O)cc3)c(O)nc2c1" What is its recorded viability at 10 µM?
88.1

Item "COc1ccc(-c2cc3c(OC)cc(OC)cc3n(C)/c2=N\Nc2ccccc2)cc1" has what recorded viability at 10 µM?
75.6

For the compound "COc1ccc(-c2cc3c(OC)cc(OC)cc3n(C)c2=S)cc1" , what viability at 10 µM is on record?
58.6

Could you tell me which viability at 10 µM is on file for "COc1ccc(-c2cc3c(OC)cc(OC)cc3n(CCC#N)c2=O)cc1" ?
59

Fill in: viability at 10 µM of "Oc1ccc(-c2cc3c(O)cc(O)cc3nc2O)cc1" is ___
91.8

I have this compound here, "CCN(CC)C(=O)CCn1c(=O)c(-c2ccc(OC)cc2)cc2c(OC)cc(OC)cc21" , and I need its recorded viability at 10 µM.
69.9

Name the reported viability at 10 µM value associated with the compound "COc1ccc(-c2cc3c(OC)cc(OC)cc3n(C)c2=O)cc1"
97

viability at 10 µM for "COc1ccc(-c2cc3c(OC)cc(OC)c4c3n(c2=O)CCC4=O)cc1" ?
85.1

What does the record list as viability at 10 µM for "COc1cccc2cc(-c3ccccc3)c(O)nc12" ?
69.1

Could you share which viability at 10 µM value was measured for "COc1ccc(-c2cc3c(OC)cc(OC)cc3nc2S)cc1" ?
78.5

Given the entry "COc1ccc(-c2cc3c(OC)cc(OC)cc3n(CCC(=O)O)c2=O)cc1" , report its measured viability at 10 µM.
115

----------
So I've got a bunch of compounds here, and I need their viability at 10 µM values.
- Test system: A549
- PROTOCOL NOTES: MTT test, A549
- Type: cell-based
- CONDITION PARAMETERS: Homo sapiens, 10^−5 M, 72 hours, control = 100%, mean ± SEM, read-out: average optical density (MTT), percentage relative to control
Numbers only; they are read as %.

// query viability at 10 µM value for entry "COc1ccc(-c2cc3c(OC)cc(OC)cc3n(CCCN(C)C)c2=O)cc1"
96.9

I would be grateful if you could share the reported viability at 10 µM for "COc1ccc(-c2cc3c(OC)ccc(OC)c3nc2O)cc1" .
114

Returns the measured viability at 10 µM for the input compound. Input: "Cn1c(=O)c(-c2ccc(O)cc2)cc2c(O)cc(O)cc21"
99.4

So what's the measured viability at 10 µM for this one? "COc1ccc(-c2cc3c(OC)cc(OC)cc3n(C)c2=O)cc1"
98

Quick one: viability at 10 µM of "COc1ccc(-c2cc3c(OC)cc(OC)cc3n(CCN(C)C)c2=O)cc1" ?
84.2

----------
- System: HCT-15
- PROTOCOL NOTES: MTT test, HCT-15
- Type: cell-based
- CONDITION PARAMETERS: Homo sapiens, 10^−5 M, 72 hours, control = 100%, mean ± SEM, read-out: average optical density (MTT), percentage relative to control
Give viability at 10 µM for every item shown.
State the answer as a number, implicitly in %.

Could you tell me which viability at 10 µM is on file for "COc1ccc(-c2cc3c(OC)cc(OC)cc3n(C)c2=S)cc1" ?
35.8

Which measured viability at 10 µM value corresponds to "Cn1c(=O)c(-c2ccc(O)cc2)cc2c(O)cc(O)cc21" ?
118

Which viability at 10 µM value belongs to "COc1cccc2cc(-c3ccccc3)c(O)nc12" ?
65.5

Need viability at 10 µM of "COc1ccc(-c2cc3c(OC)ccc(OC)c3nc2O)cc1" , thanks.
93.1

For "COc1ccc(-c2cc3c(OC)cc(OC)cc3n(CCC(=O)O)c2=O)cc1" , what is its reported viability at 10 µM?
96.7

----------
- System: SW1088
- PROTOCOL NOTES: MTT test, SW1088
- Type: cell-based
- CONDITION PARAMETERS: Homo sapiens, 10^−5 M, 72 hours, control = 100%, mean ± SEM, read-out: average optical density (MTT), percentage relative to control
ENDPOINT LABEL: viability at 10 µM (%)
Reply numerically in %, unit not repeated.

What value of viability at 10 µM on SW1088 does "Cn1c(=O)c(-c2ccc(O)cc2)cc2c(O)cc(O)cc21" have?
97.2

Report viability at 10 µM for "COc1cc(OC)c2cc(-c3ccccc3)c(O)nc2c1" tested on SW1088.
73.3

Lab note: need viability at 10 µM for "COc1ccc(-c2cc3c(OC)cc(OC)cc3n(CC#N)c2=O)cc1" on SW1088, anyone have it?
67.5

// lookup viability at 10 µM | system=SW1088 | key= "COc1ccc(-c2cc3c(OC)cc(OC)cc3n(CC(=O)O)c2=O)cc1"
103

Please provide the recorded viability at 10 µM for "COc1ccc(-c2cc3c(OC)cc(OC)cc3n(C)c2=O)cc1" , tested on SW1088.
81.3

Observed viability at 10 µM on SW1088 for "COc1ccc(-c2cc3c(OC)cc(OC)cc3n(C)c2=S)cc1" , please.
75.1

Return viability at 10 µM measured with SW1088 given this molecule: "CCOC(=O)Cn1c(=O)c(-c2ccc(OC)cc2)cc2c(OC)cc(OC)cc21"
85.4

Item "COc1ccc(-c2cc3c(OC)cc(OC)cc3n(CCCN(C)C)c2=O)cc1" with SW1088 - viability at 10 µM?
128

Quick check: viability at 10 µM on SW1088, item "COc1ccc(-c2cc3c(OC)cc(OC)cc3n(CCC(=O)O)c2=O)cc1" ?
89.8

Test system SW1088; read-out viability at 10 µM; what value for "COc1cc(OC)c2cc(-c3ccc(O)cc3)c(O)nc2c1" ?
78.3
